# EXPERIMENTAL PROTOCOL: Plasma clearance in Sprague-Dawley rat at 2 mg/kg, iv through bolus administration by LC/MS/MS analysis
# Assay type: ADME, organism-based
QUANTITY KIND: clearance (mL/min/kg)
// return numeric value only (unit: mL/min/kg, not printed)

Fill in clearance for record Cc1c(-c2ccc(C(N)=O)c3[nH]c4cc(C(C)(C)O)ccc4c23)cccc1-n1cnc2ccccc2c1=O
6.4

* * *

# EXPERIMENTAL PROTOCOL: Aqueous solubility of the compound
# Assay type: physicochemical
# CONDITION SET: aqueous medium
QUANTITY KIND: solubility

Supply reported solubility belonging to this compound: Cc1c(-c2ccc(C(N)=O)c3[nH]c4cc(C(C)(C)O)ccc4c23)cccc1-n1cnc2ccccc2c1=O
< 1 µg/mL

* * *

# EXPERIMENTAL PROTOCOL: Half life in Sprague-Dawley rat plasma at 2 mg/kg, iv through bolus administration by LC/MS/MS analysis
# Assay type: ADME, organism-based
QUANTITY KIND: half-life
Show the value, then the unit it is measured in.

Provide half-life value for the following molecule: Cc1c(-c2ccc(C(N)=O)c3[nH]c4cc(C(C)(C)O)ccc4c23)cccc1-n1cnc2ccccc2c1=O
5.1 h

* * *

# EXPERIMENTAL PROTOCOL: Permeability of the compound at pH 5.5 by PAMPA
# Assay type: ADME
# CONDITION SET: read-out: permeability
QUANTITY KIND: Papp (×10⁻⁶ cm/s)
Report only the number, with the unit ×10⁻⁶ cm/s understood.

Recall and state the measured Papp for Cc1c(-c2ccc(C(N)=O)c3[nH]c4cc(C(C)(C)O)ccc4c23)cccc1-n1cnc2ccccc2c1=O .
87.6

* * *

# EXPERIMENTAL PROTOCOL: AUC (0 to 24 hrs) in Balb/C mouse at 10 mg/kg, po
# Assay type: ADME, organism-based
# Parameters: time < 24 hr, dose 10 mg/kg, route oral
# CONDITION SET: in vivo
QUANTITY KIND: log10 AUC(0-t) at 24 h (log10 of the value in µM·h)
On a log10 scale: recorded AUC(0-t) at 24 h, unit µM·h.

Record excerpt, results attached:
{"MOLECULAR STRING": "Cc1c(-c2ccc(C(N)=O)c3[nH]c4cc(CO)ccc4c23)cccc1-n1cnc2ccccc2c1=O", "log10 AUC(0-t) at 24 h": 1.15}
{"MOLECULAR STRING": "Cc1c(-c2ccc(C(N)=O)c3[nH]c4cc(C(C)(C)O)ccc4c23)cccc1-n1cnc2c(F)cccc2c1=O", "log10 AUC(0-t) at 24 h": 1.80}
{"MOLECULAR STRING": "Cc1c(-c2ccc(C(N)=O)c3[nH]c4cc(C(C)(C)O)ccc4c23)cccc1-n1cnc2ccc(F)cc2c1=O", "log10 AUC(0-t) at 24 h": 2.05}
{"MOLECULAR STRING": "Cc1c(NC(=O)c2ccc(F)cc2)cccc1-c1ccc(C(N)=O)c2[nH]c3cc(NC(C)C)ccc3c12", "log10 AUC(0-t) at 24 h": 1.56}
{"MOLECULAR STRING": "CC(C)(O)c1ccc2c(c1)[nH]c1c(C(N)=O)ccc(-c3cccc(-n4cnc5ccccc5c4=O)c3F)c12", "log10 AUC(0-t) at 24 h": 1.28}

Answer with the recorded log10 AUC(0-t) at 24 h for the molecule listed here: Cc1c(NC(=O)c2ccc(F)cc2)cccc1-c1ccc(C(N)=O)c2[nH]c3cc(C(=O)N4CCN(C)CC4)ccc3c12
-0.40

* * *

# STUDY TARGET: Proto-oncogene tyrosine-protein kinase Src (Homo sapiens, UniProt P12931)
# Sequence (P12931 2-536 limits assumed): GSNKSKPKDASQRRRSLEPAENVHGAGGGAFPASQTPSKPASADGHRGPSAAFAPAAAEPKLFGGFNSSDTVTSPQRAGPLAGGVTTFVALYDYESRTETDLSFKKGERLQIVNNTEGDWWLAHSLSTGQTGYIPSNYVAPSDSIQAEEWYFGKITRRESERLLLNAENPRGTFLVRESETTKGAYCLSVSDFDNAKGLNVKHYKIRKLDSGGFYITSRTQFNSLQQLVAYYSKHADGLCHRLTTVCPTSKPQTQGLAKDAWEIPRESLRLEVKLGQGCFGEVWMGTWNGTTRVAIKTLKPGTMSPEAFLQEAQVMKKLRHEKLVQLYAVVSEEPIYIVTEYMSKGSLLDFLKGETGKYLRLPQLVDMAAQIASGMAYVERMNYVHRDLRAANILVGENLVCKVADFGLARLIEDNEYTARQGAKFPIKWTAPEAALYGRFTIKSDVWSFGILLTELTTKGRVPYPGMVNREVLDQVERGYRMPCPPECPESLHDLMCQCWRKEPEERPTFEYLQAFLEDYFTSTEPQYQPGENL
QUANTITY KIND: IC50 (µM)
Give just the number in µM; leave the unit off.

Using known records, supply IC50 for Cc1c(-c2ccc(C(N)=O)c3[nH]c4cc(C(C)(C)O)ccc4c23)cccc1-n1cnc2ccccc2c1=O
3.19

* * *

# STUDY TARGET: Cytochrome P450 3A4 (Homo sapiens, UniProt P08684)
# Sequence (P08684 whole entry): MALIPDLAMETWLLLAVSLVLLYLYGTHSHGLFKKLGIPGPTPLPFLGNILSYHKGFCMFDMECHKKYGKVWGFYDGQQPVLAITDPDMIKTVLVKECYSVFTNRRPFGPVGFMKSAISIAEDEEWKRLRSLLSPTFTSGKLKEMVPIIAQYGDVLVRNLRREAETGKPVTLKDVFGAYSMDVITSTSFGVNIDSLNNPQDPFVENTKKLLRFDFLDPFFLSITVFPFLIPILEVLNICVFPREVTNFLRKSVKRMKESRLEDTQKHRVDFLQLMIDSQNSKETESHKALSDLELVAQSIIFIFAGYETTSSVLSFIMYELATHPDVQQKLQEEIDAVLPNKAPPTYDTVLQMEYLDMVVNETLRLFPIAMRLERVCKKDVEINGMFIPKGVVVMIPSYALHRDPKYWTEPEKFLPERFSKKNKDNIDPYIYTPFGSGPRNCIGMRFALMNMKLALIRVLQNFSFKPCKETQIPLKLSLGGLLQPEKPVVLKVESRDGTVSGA
pIC50: −log10 of the molar value.
QUANTITY KIND: pIC50

Would you please give the reported pIC50 of Cc1c(-c2ccc(C(N)=O)c3[nH]c4cc(C(C)(C)O)ccc4c23)cccc1-n1cnc2ccccc2c1=O with Cytochrome P450 3A4 (Homo sapiens, UniProt P08684)?
< 4.40

* * *

# EXPERIMENTAL PROTOCOL: Protein binding in human serum
# Format: ADME, cell-free
# CONDITION SET: read-out: PB (converted)
QUANTITY KIND: fraction unbound
Provide a numeric answer; units are not to be included.

Answer with the recorded fraction unbound for the compound listed here: Cc1c(-c2ccc(C(N)=O)c3[nH]c4cc(C(C)(C)O)ccc4c23)cccc1-n1cnc2ccccc2c1=O
0.006

* * *

# EXPERIMENTAL PROTOCOL: AUC in cynomolgus monkey plasma at 2 mg/kg, administered through oral gavage after 0.25 to 48 hrs by LC/MS/MS analysis
# Format: ADME, organism-based, Macaca fascicularis
# Design: time upper 48 hr, dose 2 mg/kg, time lower 0.25 hr, route oral
QUANTITY KIND: AUC (µM·h)
Please respond with the number in µM·h and leave the unit unwritten.

Fill in reported AUC for this entry: Cc1c(-c2ccc(C(N)=O)c3[nH]c4cc(C(C)(C)O)ccc4c23)cccc1-n1cnc2ccccc2c1=O
32

* * *

# EXPERIMENTAL PROTOCOL: Passive permeability from basolateral to apical side in human Caco2 cells
# Format: ADME, cell-based
# CONDITION SET: Caco-2, read-out: permeability
QUANTITY KIND: Papp B→A (×10⁻⁶ cm/s)
Reply numerically in ×10⁻⁶ cm/s, unit not repeated.

Note Papp B→A for the compound shown: Cc1c(-c2ccc(C(N)=O)c3[nH]c4cc(C(C)(C)O)ccc4c23)cccc1-n1cnc2ccccc2c1=O
12.2

* * *

# EXPERIMENTAL PROTOCOL: AUC in Beagle dog plasma at 2 mg/kg, administered through oral gavage after 0.25 to 48 hrs by LC/MS/MS analysis
# Format: ADME, organism-based, Canis lupus familiaris
# Set-up: time 0.25-48 hr, dose 2 mg/kg, route oral
QUANTITY KIND: AUC (µM·h)
Express the result in µM·h but write the number alone.

Recall and state the measured AUC for Cc1c(-c2ccc(C(N)=O)c3[nH]c4cc(C(C)(C)O)ccc4c23)cccc1-n1cnc2ccccc2c1=O .
14.2

* * *

# EXPERIMENTAL PROTOCOL: Oral bioavailability in Sprague-Dawley rat at 5 mg/kg by LC/MS/MS analysis
# Format: ADME, organism-based
# CONDITION SET: in vivo
QUANTITY KIND: bioavailability (%)
Value expressed in %; do not type the unit.

Quote bioavailability reported for Cc1c(-c2ccc(C(N)=O)c3[nH]c4cc(C(C)(C)O)ccc4c23)cccc1-n1cnc2ccccc2c1=O please.
84

* * *

# EXPERIMENTAL PROTOCOL: Solubility of the compound in fasted state simulated intestinal fluid
# Type: physicochemical
QUANTITY KIND: solubility (µg/mL)
# number only, unit µg/mL dropped from output

Please give measured solubility of the following entry: Cc1c(-c2ccc(C(N)=O)c3[nH]c4cc(C(C)(C)O)ccc4c23)cccc1-n1cnc2ccccc2c1=O
6

* * *

# EXPERIMENTAL PROTOCOL: Plasma clearance in Beagle dog at 2 mg/kg, iv through bolus administration after 0.167 to 48 hrs by LC/MS/MS analysis
# Format: ADME, organism-based, Canis lupus familiaris
QUANTITY KIND: clearance (mL/min/kg)
// return numeric value only (unit: mL/min/kg, not printed)

Determine from records and report clearance for Cc1c(-c2ccc(C(N)=O)c3[nH]c4cc(C(C)(C)O)ccc4c23)cccc1-n1cnc2ccccc2c1=O
3.7

* * *

# Species on record: Homo sapiens
# EXPERIMENTAL PROTOCOL: Selectivity ratio of IC50 for GST-tagged human recombinant LCK using FITC-AHAEGIYLFKKK-NH2 as substrate to IC50 for His-tagged full length human recombinant BTK expressed in baculovirus
Answer F if Ratio IC50 is under 20, and T if it is 20 or more.

{"MOLECULAR STRING": "Cc1c(-c2ccc(C(N)=O)c3[nH]c4cc(C(C)(C)O)ccc4c23)cccc1-n1cnc2cccc(F)c2c1=O", "ANSWER LABEL": "T"}

Decide: is the reported value of Ratio IC50 for Cc1c(-c2ccc(C(N)=O)c3[nH]c4cc(C(C)(C)O)ccc4c23)cccc1N1CCc2ccccc2C1=O equal to or greater than 20?
T

Answer whether Ratio IC50 of Cc1c(-c2ccc(C(N)=O)c3[nH]c4cc(C(C)(C)O)ccc4c23)cccc1N1Cc2ccc(F)cc2C1=O is greater than or equal to 20.
T

Can Cc1c(NC(=O)c2ccc(F)cc2)cccc1-c1ccc(C(N)=O)c2[nH]c3cc(C(=O)N4CCN(C)CC4)ccc3c12 be said to have Ratio IC50 at or above 20?
F

Given Cc1c(-c2ccc(C(N)=O)c3[nH]c4cc(C(C)(C)O)ccc4c23)cccc1N1Cc2ccccc2C1=O , state whether its Ratio IC50 is at least 20.
T

Reported Ratio IC50 at or above 20? Cc1c(NC(=O)c2ccc(F)cn2)cccc1-c1ccc(C(N)=O)c2[nH]c3cc(C(=O)N4CCN(C)CC4)ccc3c12
F

Ratio IC50 >= 20 for Cc1c(-c2ccc(C(N)=O)c3[nH]c4cc(C(C)(C)O)ccc4c23)cccc1-n1cnc2ccc(F)cc2c1=O ?
T

Given Cc1c(-c2ccc(C(N)=O)c3[nH]c4cc(C(=O)N5CCN(C)CC5)ccc4c23)cccc1N1Cc2ccccc2C1=O , state whether its Ratio IC50 is at least 20.
F
